target: purified human Factor XIa (Homo sapiens, UniProt P03951); construct: purified human Factor XIa; purchased Sekisui Diagnostics; experiment: Factor XIa Assay (fluorogenic substrate Z-Gly-Pro-Arg-AFC); type: biochemical; settings: purified human Factor XIa 40 pM; Z-Gly-Pro-Arg-AFC 100 μM; 50 mM HEPES pH 7.4; read-out: hFXIa Ki (nM), Factor XIa inhibition
Sequence (P03951 388-625 limits assumed): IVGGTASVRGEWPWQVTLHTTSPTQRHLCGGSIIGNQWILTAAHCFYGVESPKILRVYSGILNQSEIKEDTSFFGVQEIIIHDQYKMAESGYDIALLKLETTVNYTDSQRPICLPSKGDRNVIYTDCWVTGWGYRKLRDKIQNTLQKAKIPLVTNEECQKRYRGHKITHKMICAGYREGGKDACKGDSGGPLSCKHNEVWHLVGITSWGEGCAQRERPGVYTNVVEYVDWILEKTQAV
Sequence (P03951 19-387 partner limits assumed): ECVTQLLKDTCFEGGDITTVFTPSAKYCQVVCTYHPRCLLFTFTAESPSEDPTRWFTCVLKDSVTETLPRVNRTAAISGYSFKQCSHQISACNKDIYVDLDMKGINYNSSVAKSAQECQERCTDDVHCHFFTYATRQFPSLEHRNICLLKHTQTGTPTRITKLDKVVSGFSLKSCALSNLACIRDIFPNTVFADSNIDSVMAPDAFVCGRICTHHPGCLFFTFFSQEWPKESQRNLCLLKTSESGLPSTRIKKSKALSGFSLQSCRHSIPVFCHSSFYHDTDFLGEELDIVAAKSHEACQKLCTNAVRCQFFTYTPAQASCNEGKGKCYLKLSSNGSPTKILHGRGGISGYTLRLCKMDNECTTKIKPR
Endpoint: Ki (nM)
One number for each entry, in nM.

Request: Value lookup for Ki; key = NC1CCc2cc(C(=O)N3CCCC(c4ccccc4)C3C(=O)Nc3ccc(C(=O)O)cc3)ccc21 (racemic)
Result: 572

Please find the next compound below.
Request: Value lookup for Ki; key = O=C(O)c1ccc(NC(=O)C2CCC(c3ccccc3)CN2C(=O)/C=C/c2cc(Cl)ccc2-n2cnnn2)cc1 (stereo not drawn)
Result: 2610

====

molecular target: purified human Factor XIa (Homo sapiens, UniProt P03951); construct: purified human Factor XIa; purchased Sekisui Diagnostics; test: Factor XIa Assay (fluorogenic substrate Z-Gly-Pro-Arg-AFC); type: biochemical; details: purified human Factor XIa 40 pM; Z-Gly-Pro-Arg-AFC 100 μM; 50 mM HEPES pH 7.4; read-out: hFXIa Ki (nM), Factor XIa inhibition
Exercise: for every item that follows, state its recorded Ki.
Answers are plain numbers, in nM.

Request: Value lookup for Ki; key = O=C(O)c1cccc(-c2c[nH]c(C3C(c4ccccc4)CCCN3C(=O)/C=C/c3cc(Cl)ccc3-n3cnnn3)n2)c1 (stereo not drawn)
Result: 56.9

Request: Value lookup for Ki; key = N#Cc1ccc(-c2c[nH]c(C3C(c4ccccc4)CCCN3C(=O)/C=C/c3cc(Cl)ccc3-n3cnnn3)n2)cc1 (stereo not drawn)
Result: 3260

Request: Value lookup for Ki; key = Cc1cc(C2CCCN(C(=O)/C=C/c3cc(Cl)ccc3-n3cnnn3)C2C(=O)Nc2ccc(C(=O)O)cc2)ccc1F (stereo not drawn)
Result: 51.5

Please find the next compound below.
Request: Value lookup for Ki; key = N#Cc1ccc(-c2c[nH]c(C3C(c4ccccc4)CCCN3C(=O)CCc3cc(Cl)ccc3-n3cnnn3)n2)cc1 (stereo not drawn)
Result: 8510

Values were extracted from patent US20160229839A1.
